tested.on: CDK2/Cyclin E (Homo sapiens)
experiment.description: In vitro kinase activity assay
measurement.parameters: 10-dose, three-fold serial dilution from 100 μM
pIC50: −log10 of the molar value.
readout.label: pIC50

1. O=c1c(O)c(-c2cccc(Cl)c2)oc2ccc(F)cc12 [F17] :: 5.24
2. O=c1c(O)c(-c2ccccc2)oc2cc(Br)ccc12 [F14] :: 5.27
3. Cc1ccc2c(=O)c(O)c(-c3cccc(Cl)c3)oc2c1 [F8] :: 4.77
4. COc1cccc(-c2oc3cc(C)ccc3c(=O)c2O)c1 [F9] :: 5.75
5. O=c1c(O)c(-c2ccc(O)c(O)c2)oc2cc(O)ccc12 [F0, 3´,4´,7-trihydroxyflavonol, reference compound] :: 5.48

---

Test system: A431 cells
experiment.description: MTT cytotoxicity / cell viability assay, A431
Type: cell-based, human
measurement.parameters: Homo sapiens, A-431, 48 h
pIC50: −log10 of the molar value.
Overview of recorded pIC50 for various compounds
readout.label: pIC50

1) CCOc1ccc(-c2oc3cc(Cl)ccc3c(=O)c2O)cc1F :: 5.09
2) Cc1cc([N+](=O)[O-])c2oc(-c3ccc(Br)cc3)c(O)c(=O)c2c1 :: 6.70
3) COc1cc(-c2oc3ccc(F)cc3c(=O)c2O)cc(OC)c1OC :: 4.89
4) COc1cccc2c1C(=O)c1c(O)c3c(c(O)c1C2=O)C[C@@](O)(C(=O)CO)C[C@@H]3O[C@H]1C[C@H](N)[C@H](O)[C@H](C)O1 [Doxorubicin, reference compound] :: 6.43

---

tested.on: c-Kit (Homo sapiens)
Sequence (P10721 26-976): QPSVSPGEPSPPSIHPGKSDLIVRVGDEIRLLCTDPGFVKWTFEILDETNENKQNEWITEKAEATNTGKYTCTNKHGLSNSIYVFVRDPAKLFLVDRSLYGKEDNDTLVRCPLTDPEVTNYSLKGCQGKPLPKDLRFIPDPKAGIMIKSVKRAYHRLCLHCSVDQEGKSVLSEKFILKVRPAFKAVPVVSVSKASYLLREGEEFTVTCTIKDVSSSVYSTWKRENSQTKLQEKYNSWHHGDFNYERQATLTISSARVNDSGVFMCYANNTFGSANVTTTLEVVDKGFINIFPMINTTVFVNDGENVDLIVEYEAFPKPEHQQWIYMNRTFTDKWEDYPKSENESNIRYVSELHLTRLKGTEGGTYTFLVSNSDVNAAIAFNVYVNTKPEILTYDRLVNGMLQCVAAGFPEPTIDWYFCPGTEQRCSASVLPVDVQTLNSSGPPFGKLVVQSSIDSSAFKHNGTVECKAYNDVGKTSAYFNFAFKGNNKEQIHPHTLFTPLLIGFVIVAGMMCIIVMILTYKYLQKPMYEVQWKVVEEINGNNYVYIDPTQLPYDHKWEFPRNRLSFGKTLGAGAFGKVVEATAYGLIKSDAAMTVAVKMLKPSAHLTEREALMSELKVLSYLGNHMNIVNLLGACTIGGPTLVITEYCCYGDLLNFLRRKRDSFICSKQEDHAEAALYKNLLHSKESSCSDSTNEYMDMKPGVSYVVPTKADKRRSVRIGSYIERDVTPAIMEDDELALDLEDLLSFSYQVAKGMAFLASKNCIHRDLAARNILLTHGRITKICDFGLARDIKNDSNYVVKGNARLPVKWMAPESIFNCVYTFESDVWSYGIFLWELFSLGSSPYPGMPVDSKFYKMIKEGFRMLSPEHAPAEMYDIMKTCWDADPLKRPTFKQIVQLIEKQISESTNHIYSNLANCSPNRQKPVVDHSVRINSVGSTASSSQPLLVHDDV
pIC50: −log10 of the molar value.
Overview of recorded pIC50 for various compounds
readout.label: pIC50

1. Cc1ccc2c(=O)c(O)c(-c3cccc(Cl)c3)oc2c1 :: 6.27
2. Cc1cc([N+](=O)[O-])c2oc(-c3ccc(Br)cc3)c(O)c(=O)c2c1 :: 7.05
3. O=c1c(O)c(-c2ccccc2)oc2cc(Br)ccc12 :: 6.89
4. CCOc1ccc(-c2oc3cc(Cl)ccc3c(=O)c2O)cc1F :: 6.59

---

Test system: A431 cells
experiment.description: MTT cytotoxicity / cell viability assay, A431
Format: cell-based, human
measurement.parameters: Homo sapiens, A-431, 48 h
pIC50: −log10 of the molar value.
readout.label: pIC50

1. O=c1c(O)c(-c2ccc(O)c(O)c2)oc2cc(O)ccc12 [F0, 3´,4´,7-trihydroxyflavonol, reference compound] :: 4.59
2. Cc1cc2oc(-c3ccc(C(C)(C)C)cc3)c(O)c(=O)c2cc1Cl [F18] :: 4.62
3. COc1cccc(-c2oc3ccccc3c(=O)c2O)c1 [F2] :: 4.68
4. Cc1cc2oc(-c3ccc(OCc4ccccc4)cc3)c(O)c(=O)c2cc1Cl [F19] :: 5.82

---

System: A375 cells
experiment.description: MTT cytotoxicity / cell viability assay, A375
Format: cell-based, human
measurement.parameters: Homo sapiens, A-375, 48 h
Please respond with t when measured IC50 is strictly beneath 10 µM, and with f in all other cases.

1) COc1cc(OC)c(-c2oc3cc(Cl)ccc3c(=O)c2O)cc1OC :: f
2) COc1ccc2c(=O)c(O)c(-c3ccc(Br)cc3)oc2c1 :: f
3) Cc1ccc2c(=O)c(O)c(-c3cccc(Cl)c3)oc2c1 :: t
4) COc1ccc2c(=O)c(O)c(-c3ccc(C(C)(C)C)cc3)oc2c1 :: f
5) O=c1c(O)c(-c2ccc(SC(F)(F)F)cc2)oc2ccccc12 :: f
6) Cc1cc([N+](=O)[O-])c2oc(-c3ccc(Br)cc3)c(O)c(=O)c2c1 :: t
7) COc1ccc(-c2oc3ccc(Br)cc3c(=O)c2O)cc1OC :: f
8) O=c1c(O)c(-c2cccc(Cl)c2)oc2ccc(F)cc12 :: f
9) O=c1c(O)c(-c2cc(C(F)(F)F)cc(C(F)(F)F)c2)oc2ccccc12 :: t
10) O=c1c(O)c(-c2ccc(Br)cc2Cl)oc2ccccc12 :: f
11) O=c1c(O)c(-c2ccccc2)oc2ccccc12 [F1, 3-Hydroxy-2-phenyl-4H-chromen-4-one] :: f
12) O=c1c(O)c(-c2ccc(OCc3ccccc3)cc2)oc2ccccc12 :: f
13) CCOc1ccc(-c2oc3cc(Cl)ccc3c(=O)c2O)cc1F :: t
14) O=c1c(O)c(-c2ccc(C(F)(F)F)cc2C(F)(F)F)oc2ccccc12 :: f
15) COc1cc(OC)c(-c2oc3ccccc3c(=O)c2O)cc1OC :: f
16) O=c1c(O)c(-c2ccc(O)c(O)c2)oc2cc(O)ccc12 [F0, 3´,4´,7-trihydroxyflavonol, reference compound] :: f
17) Cc1ccc2c(=O)c(O)c(-c3ccc(C(C)(C)C)cc3)oc2c1 :: f
